Cited source for all entries: PubChem BioAssay (NCI)

tested on: SK-MEL-2 melanoma; experiment: NCI-60 one-dose screen, 48 h; details: 10 µM unless noted
Compounds without any hit were thinned out: in the full panel of roughly 83,000, 20% have a hit. Active and inactive are the calls of the source. The calls were made as follows: active = growth percent below 10; inactive = the rest.
Reply using exactly one outcome from T (active), F (inactive)

CCC(=O)Nc1ccccc1C#C/C=C\C#Cc1ccccc1C(F)(F)F	F
Cc1ccc2c(c1)C(=O)/C(=C/c1ncc([N+](=O)[O-])n1C)O2	T
CCOC(=O)C1=C(C)N2C(=NC3=C(CCC/C3=C\c3ccc(Cl)cc3)C2c2ccc(Cl)cc2)S1 (stereo unspecified)	F
O=C(OCCBr)c1ccc(Cl)c([N+](=O)[O-])c1	F
CCOC(Cc1c(N)[nH]c(=S)[nH]c1=O)OCC	F
Clc1ncn[nH]1	F

Hi team, can someone confirm the assay call for CSC1=Nc2c(c(C)c(-c3ccccc3)n2CCCN2CCCCC2)C2=NC(=O)C[C@H](C)N12 ?
F

Same for Fc1ccc([C@@H]2CCNC[C@H]2COc2ccc3c(c2)OCO3)cc1
F

Same for CN1C(=O)/C(=C/c2nc(-c3cccc(F)c3)n3ccccc23)c2ccccc21
F

Same for CCCCc1nc(Cl)c(CO)n1Cc1ccc(-c2ccccc2-c2nn[nH]n2)cc1
F

Same for O=C1c2ccccc2C(=O)c2c1cccc2-n1nnc2ccccc21
F

---

tested on: SK-MEL-2 melanoma; test: NCI-60 one-dose screen, 48 h (100 = growth as untreated, 0 = no growth, -100 = all killed); details: 10 µM unless noted
This is part of a sample that, as a whole, favours compounds with a hit. Of some 83,000 tested, about 20% had one in any assay.
reportedEndpoint: growth (%)
Supply the numeric figure in %, leaving out any unit text.

These recorded examples may help you get a feel for the data.
CCC1=C(c2ccc(OC)cc2)C(C)Oc2cc(OC(C)=O)ccc21 (stereo not given)	89.7
Cc1nnc(Nc2ccc(NC(=O)Nc3ccc(Cl)cc3)cc2)c2ccccc12	44

What value of growth has been recorded for this entry: CN(CCOc1ccc(CC2SC(=O)NC2=O)cc1)c1ccccn1 (stereo not given)
117

Same for O=C(Oc1ccc[nH]c1=O)c1cccc(Cl)c1
108

Same for CCOc1cc(C(C)(C)C)ccc1C1=N[C@H](c2ccc(Cl)cc2)[C@H](c2ccc(Cl)cc2)N1C(=O)N1CCN(CC#Cc2cccc3c2CN([C@@H]2CCC(=O)NC2=O)C3=O)CC1
44.9

---

tested on: RXF 393 renal; test: NCI-60 one-dose screen, 48 h (100 = growth as untreated, 0 = no growth, -100 = all killed); details: 10 µM unless noted
About 83,000 compounds went through this panel and 20% of them were active in at least one assay; those are over-represented in the sample as a whole.
Mark TRUE for reported growth of 90% or greater; mark FALSE for anything smaller.

// known answers, use as guide
CC(=O)Oc1ccc(C23c4ccccc4C2(OC(C)=O)c2cc(OC(C)=O)ccc23)cc1 (stereo not given)	TRUE
COc1ccc(-c2nc3sccn3c2-c2ccnc(S(C)(=O)=O)n2)cc1	TRUE
CSc1nc2c(c(=O)n1C)C(c1ccccc1)C1=C(N2)/C(=C/c2ccccc2)CCC1 (stereo not given)	FALSE
COc1ccc(/C=N/NC(=O)c2ccc(S(C)(=O)=O)cc2)cc1OC	TRUE
COc1cc2cn3c4ccc(O)cc4nc(N)c3c2cc1OC	FALSE

Does O=C(CCc1nnc2sc(-c3ccc(Cl)cc3Cl)nn12)c1nc2ccccc2[nH]1 have a reported growth of at least 90%?
FALSE

Same for COc1cc(C2CC(c3ccc(C)cc3)=NN2C(C)=O)ccc1Oc1ccnc2cc(Cl)ccc12 (stereo not given)
FALSE

Same for CCN(CC)c1ccc(N=Nc2cc(Cl)ccc2Cl)c(NC(=O)CCC(=O)O)c1
TRUE

Same for Cc1nn(-c2ccccc2)c2c1oc(=O)c1cc(Cl)ccc12
TRUE
